- subject.of.test: 5-HT3A receptor K255L (Mus musculus, UniProt P23979, K282L)
- Sequence (P23979 24-489 K282L): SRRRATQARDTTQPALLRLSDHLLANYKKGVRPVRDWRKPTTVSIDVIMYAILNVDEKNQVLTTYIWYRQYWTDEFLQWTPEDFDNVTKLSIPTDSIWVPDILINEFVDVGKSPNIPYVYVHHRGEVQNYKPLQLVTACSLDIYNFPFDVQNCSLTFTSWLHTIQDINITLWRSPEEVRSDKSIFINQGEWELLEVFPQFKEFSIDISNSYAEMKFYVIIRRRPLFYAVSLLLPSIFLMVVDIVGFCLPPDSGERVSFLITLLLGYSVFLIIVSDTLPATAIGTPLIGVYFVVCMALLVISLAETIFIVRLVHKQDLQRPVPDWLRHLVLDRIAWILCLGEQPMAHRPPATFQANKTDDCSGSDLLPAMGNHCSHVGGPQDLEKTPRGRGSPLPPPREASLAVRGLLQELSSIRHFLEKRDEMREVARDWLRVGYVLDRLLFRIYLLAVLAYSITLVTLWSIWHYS
- assay.details: [3H]GR65630 saturation binding, K255L receptor, HEK293 cell membranes
- measurement.context: mean and SEM, n ≥ 3
readout.label: pKd
Formally, pKd is defined as -log10 of the concentration c, with c in mol/L.

Request: Recall the recorded pKd for Cc1[nH]cnc1CCC(=O)c1cn(C)c2ccccc12 [[^3H]GR65630] with 5-HT3A receptor K255L (Mus musculus, UniProt P23979, K282L) and state it.
Response: 9.77

---

- subject.of.test: 5-HT3A receptor M235A (Mus musculus, UniProt P23979, M262A)
- Sequence (P23979 24-489 M262A): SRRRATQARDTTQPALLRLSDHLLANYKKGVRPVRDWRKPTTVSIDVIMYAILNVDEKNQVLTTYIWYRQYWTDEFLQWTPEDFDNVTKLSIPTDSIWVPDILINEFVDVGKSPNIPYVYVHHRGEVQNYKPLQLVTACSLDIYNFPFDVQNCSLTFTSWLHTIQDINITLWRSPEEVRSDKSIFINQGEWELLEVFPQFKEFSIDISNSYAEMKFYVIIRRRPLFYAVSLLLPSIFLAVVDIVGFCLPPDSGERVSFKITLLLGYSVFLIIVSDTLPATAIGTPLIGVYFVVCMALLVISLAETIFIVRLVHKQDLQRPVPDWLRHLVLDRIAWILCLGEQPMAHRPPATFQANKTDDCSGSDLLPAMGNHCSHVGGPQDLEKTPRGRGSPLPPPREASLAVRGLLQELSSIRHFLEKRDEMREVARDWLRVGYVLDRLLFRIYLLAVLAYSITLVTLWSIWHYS
- assay.details: [3H]GR65630 saturation binding, M235A receptor, HEK293 cell membranes
- measurement.context: mean and SEM, n ≥ 3
readout.label: Kd (nM)
Write the number in nM without appending the unit.

Request: If you can, please state the reported Kd value of Cc1[nH]cnc1CCC(=O)c1cn(C)c2ccccc12 [[^3H]GR65630] .
Response: 0.7
